molecular target: PIK3C3 lipid kinase (Homo sapiens); experiment: Biochemical Vps34 lipid kinase assay (ADP-Glo); conditions: 1 h, single dose 1 μM; residual activity compared to control (DMSO); 20 μM ATP; read-out: VPS34_1microM_%ofcntrl
Sequence (Q8NEB9 whole entry): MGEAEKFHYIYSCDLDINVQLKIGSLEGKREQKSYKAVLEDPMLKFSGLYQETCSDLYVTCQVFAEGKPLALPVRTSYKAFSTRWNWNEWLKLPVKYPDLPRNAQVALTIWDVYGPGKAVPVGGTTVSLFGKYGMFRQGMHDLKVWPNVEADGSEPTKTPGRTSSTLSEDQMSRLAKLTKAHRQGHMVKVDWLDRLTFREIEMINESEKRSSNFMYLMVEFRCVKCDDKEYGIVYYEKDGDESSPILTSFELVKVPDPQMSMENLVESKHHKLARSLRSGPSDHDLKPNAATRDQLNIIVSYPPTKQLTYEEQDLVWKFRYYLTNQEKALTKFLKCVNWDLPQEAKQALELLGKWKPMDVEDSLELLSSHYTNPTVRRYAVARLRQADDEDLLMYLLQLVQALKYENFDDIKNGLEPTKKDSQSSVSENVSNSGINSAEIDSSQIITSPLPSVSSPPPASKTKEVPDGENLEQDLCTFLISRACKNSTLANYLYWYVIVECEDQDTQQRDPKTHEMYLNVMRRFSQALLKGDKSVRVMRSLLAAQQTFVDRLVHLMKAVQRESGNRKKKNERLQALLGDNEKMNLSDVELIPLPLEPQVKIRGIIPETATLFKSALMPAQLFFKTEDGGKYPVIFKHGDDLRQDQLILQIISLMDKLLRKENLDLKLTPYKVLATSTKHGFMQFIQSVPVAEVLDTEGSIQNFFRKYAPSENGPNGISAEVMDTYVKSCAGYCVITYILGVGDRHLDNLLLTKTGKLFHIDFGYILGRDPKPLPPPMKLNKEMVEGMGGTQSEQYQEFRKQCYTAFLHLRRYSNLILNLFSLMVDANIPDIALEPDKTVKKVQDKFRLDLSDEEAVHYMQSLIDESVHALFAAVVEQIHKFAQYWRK
Binning rule for recorded remaining activity at 1 µM: low = under 20%, intermediate = from 20% up to 40%, high = 40% and over

Molecule	Measurement Target	Assigned Category
O=C1CN2CCN(CC2)Cc2cccc(c2)Nc2cc(ccn2)-c2cnc(nc2)N2CC(O)CC2CCN1 (centres unmarked) [Compound 55]	PIK3C3 lipid kinase (Homo sapiens)	intermediate
CN1CCCN(CCCO)c2ncc(cn2)-c2ccnc(c2)Nc2cccc(c2)CN2CCN(CC2)CC1=O [Compound 16]	PIK3C3 lipid kinase (Homo sapiens)	high
CC1(C)CN2CCN1CC(=O)NCCCNc1ncc(cn1)-c1ccnc(c1)Nc1cccc(c1)C2 [Compound 18]	PIK3C3 lipid kinase (Homo sapiens)	low
CC1CN2Cc3cccc(c3)Nc3cc(ccn3)-c3cnc(nc3)NCCCNC(=O)CN1CC2C (centres unmarked) [Compound 35]	PIK3C3 lipid kinase (Homo sapiens)	intermediate
CC1CN2CCN1Cc1cccc(c1)Nc1cc(ccn1)-c1cnc(nc1)NCCCNC(=O)C2 (centres unmarked) [Compound 40]	PIK3C3 lipid kinase (Homo sapiens)	low
CN1CCN(CCCO)c2ncc(cn2)-c2ccnc(c2)Nc2cccc(c2)CN2CCN(CC2)CC1=O [Compound 17]	PIK3C3 lipid kinase (Homo sapiens)	high
O=C1NCCCNc2ncc(cn2)-c2ccnc(c2)Nc2cccc(c2)CN2CCN(CC2)C12COC2 [Compound 10]	PIK3C3 lipid kinase (Homo sapiens)	low
CN1c2cccc(c2)Nc2cc(ccn2)-c2cnc(nc2)NCCCNC(=O)CN2CCC1CC2 [Compound 101]	PIK3C3 lipid kinase (Homo sapiens)	intermediate
O=C1CN2CC3CCC2CN3Cc2cccc(c2)Nc2cc(ccn2)-c2cnc(nc2)NCCCN1 (single isomer, unassigned) [Compound 26]	PIK3C3 lipid kinase (Homo sapiens)	low
C=CCN1CCNC(=O)CN2CCN(CC2)Cc2cccc(c2)Nc2cc(ccn2)-c2cnc(nc2)C1 [Compound 130]	PIK3C3 lipid kinase (Homo sapiens)	high

---

biological target: EF2K (Homo sapiens); construct: host or cells: LN-229 glioblastoma cell lysate; assay: Biochemical EF2K lysate-based kinase assay (AlphaLISA p-eEF2 Thr56); settings: LN-229 cell lysates, 10 mM ATP, pH 6.6; pIC50 = -log IC50 (M); read-out: eEF2K_C_alphalisa pIC50 (converted)
Sequence (O00418 whole entry): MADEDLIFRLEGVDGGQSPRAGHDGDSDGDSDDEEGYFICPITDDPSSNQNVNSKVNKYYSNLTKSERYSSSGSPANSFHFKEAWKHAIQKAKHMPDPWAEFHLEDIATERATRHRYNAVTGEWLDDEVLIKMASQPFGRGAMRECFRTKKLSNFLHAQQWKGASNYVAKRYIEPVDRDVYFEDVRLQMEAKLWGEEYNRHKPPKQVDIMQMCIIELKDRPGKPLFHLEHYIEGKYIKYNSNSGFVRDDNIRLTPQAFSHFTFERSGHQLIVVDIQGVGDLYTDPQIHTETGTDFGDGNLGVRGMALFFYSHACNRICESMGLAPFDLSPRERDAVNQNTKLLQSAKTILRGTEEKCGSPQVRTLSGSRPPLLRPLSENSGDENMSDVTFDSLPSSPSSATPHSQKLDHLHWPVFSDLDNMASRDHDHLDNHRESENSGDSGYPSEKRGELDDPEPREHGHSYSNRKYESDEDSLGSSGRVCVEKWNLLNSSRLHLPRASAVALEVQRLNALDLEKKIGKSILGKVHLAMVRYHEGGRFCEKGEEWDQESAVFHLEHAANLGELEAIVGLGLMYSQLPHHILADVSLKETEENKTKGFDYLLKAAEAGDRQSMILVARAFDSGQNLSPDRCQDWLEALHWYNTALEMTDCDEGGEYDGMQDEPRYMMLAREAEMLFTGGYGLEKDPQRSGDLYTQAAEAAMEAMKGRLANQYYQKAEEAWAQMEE

Compound	IC50 / M
O=C1NCCC2CC(O)CN2c2ncc(cn2)-c2ccnc(c2)Nc2cccc(c2F)CN2CCN(CC2)C12CC2 (stereo not drawn) [Compound 53]	4.07e-09
O=C1CN2CCN(Cc3cccc(c3)Nc3cc(ccn3)-c3cnc(nc3)NCCCN1)CC21CC1 [Compound 28]	2.24e-05
CC1CN2CCN1Cc1cccc(c1)Nc1cc(ccn1)-c1cnc(nc1)N1CC(O)CC1CCNC(=O)C2 (stereo not drawn) [Compound 61]	1.26e-08
O=C1CN2CCN(CC2)C2(CC2)c2cccc(c2)Nc2cc(ccn2)-c2cnc(nc2)NCCCN1 [Compound 73]	5.25e-06
NC1CC2CCNC(=O)C3(CC3)N3CCN(CC3)Cc3cccc(c3)Nc3cc(ccn3)-c3cnc(nc3)N2C1 (stereo not drawn) [Compound 85]	2.75e-08
CC1(C)c2cccc(c2)Nc2cc(ccn2)-c2cnc(nc2)NCCCNC(=O)CN2CCN1CC2 [Compound 74]	1.2e-07
CC(=O)NCCCOCC1CN2CCN1Cc1cccc(c1)Nc1cc(ccn1)-c1cnc(nc1)NCCCNC(=O)C2 (stereo not drawn) [Compound 115]	1.51e-07
CC(=O)NCCCOCC1CN2CCN1Cc1cccc(c1)Nc1cc(ccn1)-c1cnc(nc1)NCCCNC(=O)C2 (stereo not drawn) [Compound 149]	6.31e-06
C=CCN1CCNC(=O)CN2CCN(CC2)Cc2cccc(c2)Nc2cc(ccn2)-c2cnc(nc2)C1 [Compound 130]	1e-06

---

Measured IC50, listed per entry.
biological target: eEF2K (Homo sapiens); construct: in the immortalized epithelial breast cell lines, MCF10A; host or cells: MCF10A immortalized breast epithelial cells; assay: EF2K cell-based assay (P-EF2 AlphaLISA, 2-deoxyglucose stimulated MCF10A cells); details: 2.5 mM 2-deoxyglucose 4 h, phosphorylation of EF2 at Thr 56, pIC50 = -log IC50 (M), read-out: eEF2K_C_PThr56 pIC50 (converted)
Sequence (O00418 whole entry): as the sequence (O00418 whole entry) above
Reported Property: IC50 (M)

Compound	Reported Property	Relation Sign	Measured Result
O=C1CN2CCN(CC2)Cc2cccc(c2)Nc2cc(ccn2)-c2cnc(cn2)NCCCN1	IC50	=	1.23e-05
O=C1CN2CCN(CC2)Cc2cccc(c2)Nc2cc(ccn2)-c2cnc(nc2)N2CC(O)CC2CCN1 (stereo not drawn) [Compound 54]	IC50	=	7.94e-07
NC(=O)C1CCNC(=O)CN2CCN(CC2)Cc2cccc(c2)Nc2cc(ccn2)-c2cnc(nc2)N1 (stereo not drawn) [Compound 121]	IC50	>	1e-05
CN1c2cccc(c2)Nc2cc(ccn2)-c2cnc(nc2)NCCCNC(=O)C2(CC2)N2CCC1CC2	IC50	=	1.32e-06
CN1c2cccc(c2F)Nc2cc(ccn2)-c2cnc(nc2)N2CC(O)CC2CCNC(=O)C2(CC2)N2CCC1CC2 (stereo not drawn)	IC50	=	7.94e-07
O=C1CN2CCC(CC2)Oc2cccc(c2F)Nc2cc(ccn2)-c2cnc(nc2)NCCCN1	IC50	=	7.24e-07
COCCN1CCN(C)C(=O)CN2CCN(CC2)Cc2cccc(c2)Nc2cc(ccn2)-c2cnc1nc2	IC50	>	3.02e-05
O=C1NCCCNc2ncc(cn2)-c2ccnc(c2)Nc2cccc(c2)CN2CCN(CC2)C12COC2	IC50	=	1.48e-06
O=C1CN2CCN(Cc3cccc(c3)Nc3cc(ccn3)-c3cnc(nc3)N3CCCC3CCN1)C(CO)C2 (stereo not drawn) [Compound 46]	IC50	=	6.46e-07
CC(=O)NCCCOCC1CN2CCN1Cc1cccc(c1)Nc1cc(ccn1)-c1cnc(nc1)NCCCNC(=O)C2 (stereo not drawn) [Compound 149]	IC50	>	1e-05
COC(=O)C1CCNC(=O)CN2CCN(CC2)Cc2cccc(c2)Nc2cc(ccn2)-c2cnc(nc2)N1 (stereo not drawn) [Compound 116]	IC50	=	1.91e-05
CN1c2cccc(c2)Nc2cc(ccn2)-c2cnc(nc2)NCCCNC(=O)CN2CCC1CC2	IC50	=	3.98e-06
O=C1NCCC2CC(O)CN2c2ncc(cn2)-c2ccnc(c2)Nc2cccc(c2)OC2CCN(CC2)C12CC2 (stereo not drawn)	IC50	=	3.31e-07
O=C1CN2CCN(CC2)Cc2cccc(c2)Nc2cc(ccn2)-c2cnc(nc2)NC(C(=O)O)CCN1 (stereo not drawn)	IC50	>	3.02e-05
O=C1NCCC2CC(O)CN2c2ncc(cn2)-c2ccnc(c2)Nc2cccc(c2F)CN2CCN(CC2)C12CC2 (stereo not drawn)	IC50	=	8.51e-08

---

target: EF2K (Homo sapiens); construct: host or cells: LN-229 glioblastoma cell lysate; assay: Biochemical EF2K lysate-based kinase assay (AlphaLISA p-eEF2 Thr56); conditions: LN-229 cell lysates, 10 mM ATP, pH 6.6; pIC50 = -log IC50 (M); read-out: eEF2K_C_alphalisa pIC50 (converted)

Compound	Uom	IC50
O=C1CN2CCN(Cc3cccc(c3)Nc3cc(ccn3)-c3cnc(nc3)NCCCN1)C(CO)C2 (single isomer, unassigned) [Compound 7]	M	1.12e-07
N#CC1CC2CCNC(=O)CN3CCN(CC3)Cc3cccc(c3)Nc3cc(ccn3)-c3cnc(nc3)N2C1 (stereo not shown) [Compound 77]	M	4.27e-08
O=C1CN2CCN(CC2)Cc2cccc(c2)Nc2cc(ccn2)-c2cnc(nc2)NCCS(=O)(=O)N1 [Compound 126]	M	2.82e-07
O=C1NCCCNc2ncc(cn2)-c2ccnc(c2)Nc2cccc(c2)CN2CCN(CC2)C1CO (single isomer, unassigned) [Compound 2]	M	4.79e-08

---

target: UniProt Q8NEB9; assay: Biochemical Vps34 lipid kinase assay (ADP-Glo); conditions: 1 h, single dose 1 μM; residual activity compared to control (DMSO); 20 μM ATP; read-out: VPS34_1microM_%ofcntrl
Reported Property: remaining activity at 1 µM

Compound	Measured Result
O=C1CN2CCC(CC2)Nc2cccc(c2)Nc2cc(ccn2)-c2cnc(nc2)NCCCN1 [Compound 106]	22.4%
O=C1CN2CC3CCC(C2)N3Cc2cccc(c2)Nc2cc(ccn2)-c2cnc(nc2)NCCCN1 [Compound 41]	23.3%
NC(=O)C1CCNC(=O)CN2CCN(CC2)Cc2cccc(c2)Nc2cc(ccn2)-c2cnc(nc2)N1 (stereo not shown) [Compound 123]	73.4%
COC(=O)C1CCNC(=O)CN2CCN(CC2)Cc2cccc(c2)Nc2cc(ccn2)-c2cnc(nc2)N1 (stereo not shown) [Compound 116]	33.5%
CN1CCCN(C)c2ncc(cn2)-c2ccnc(c2)Nc2cccc(c2)CN2CCN(CC2)CC1=O [Compound 38]	43.3%
CC1CN2CCN1Cc1cccc(c1)Nc1cc(ccn1)-c1cnc(nc1)N1CC(O)CC1CCNC(=O)C2 (stereo not shown) [Compound 60]	86.8%
NS(=O)(=O)NC1CC2CCNC(=O)C3(CC3)N3CCN(CC3)Cc3cccc(c3)Nc3cc(ccn3)-c3cnc(nc3)N2C1 (stereo not shown) [Compound 87]	33.8%

Origin of the recorded values: patent US20170022201A1
